Documented relative viability across a set of compounds
system: HCC-78; assay: relative viability (nuclei count vs DMSO), 5 days (fraction); higher = more cells survive; conditions: first compound 0.1265 µM
No unit in the answer, only the number.

Name the recorded relative viability of O=C(O)c1ccc(-c2c[nH]c3ncc(-c4ccccc4)cc23)cc1C1CCCC1 + C[C@]1(O)C[C@@H](c2nc(-c3ccc4ccc(-c5ccccc5)nc4c3)c3c(N)nccn32)C1 [Linsitinib] (partner 1 µM) , assay system HCC-78.
0.571

Report the value of relative viability obtained on HCC-78 for O=C(O)c1ccc(-c2c[nH]c3ncc(-c4ccccc4)cc23)cc1C1CCCC1 + C[C@@H](Oc1cc(-c2cnn(C3CCNCC3)c2)cnc1N)c1c(Cl)ccc(F)c1Cl [Crizotinib] (partner 1 µM) .
0.381

Recall the reported relative viability of O=C(O)c1ccc(-c2c[nH]c3ncc(-c4ccccc4)cc23)cc1C1CCCC1 + CS(=O)(=O)CCNCc1ccc(-c2ccc3ncnc(Nc4ccc(OCc5cccc(F)c5)c(Cl)c4)c3c2)o1 [Lapatinib] (partner 2 µM) when tested on HCC-78.
1.25
